# experimental.system: α1β3 cryo-EM construct (α1β3CryoEM) (Homo sapiens, UniProt P14867+P28472, DEL344-414/G341Q/R340S/S415R/S417A/V416A/Y342P)
# Sequence (P14867 with tags, fused parts or gaps R340S/G341Q/Y342P/DEL344-414/S415R/V416A/S417A): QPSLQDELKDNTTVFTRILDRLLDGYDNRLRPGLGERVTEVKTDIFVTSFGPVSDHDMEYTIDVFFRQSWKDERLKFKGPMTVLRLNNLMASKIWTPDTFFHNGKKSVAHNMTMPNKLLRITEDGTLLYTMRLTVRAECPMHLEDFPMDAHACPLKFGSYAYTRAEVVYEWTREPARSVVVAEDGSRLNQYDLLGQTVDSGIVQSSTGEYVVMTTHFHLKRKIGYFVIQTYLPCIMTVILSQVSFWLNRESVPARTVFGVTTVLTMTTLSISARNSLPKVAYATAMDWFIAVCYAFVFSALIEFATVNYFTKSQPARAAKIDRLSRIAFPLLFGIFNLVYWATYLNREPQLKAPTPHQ
# Sequence (P28472 with tags, fused parts or gaps, stated change not applied): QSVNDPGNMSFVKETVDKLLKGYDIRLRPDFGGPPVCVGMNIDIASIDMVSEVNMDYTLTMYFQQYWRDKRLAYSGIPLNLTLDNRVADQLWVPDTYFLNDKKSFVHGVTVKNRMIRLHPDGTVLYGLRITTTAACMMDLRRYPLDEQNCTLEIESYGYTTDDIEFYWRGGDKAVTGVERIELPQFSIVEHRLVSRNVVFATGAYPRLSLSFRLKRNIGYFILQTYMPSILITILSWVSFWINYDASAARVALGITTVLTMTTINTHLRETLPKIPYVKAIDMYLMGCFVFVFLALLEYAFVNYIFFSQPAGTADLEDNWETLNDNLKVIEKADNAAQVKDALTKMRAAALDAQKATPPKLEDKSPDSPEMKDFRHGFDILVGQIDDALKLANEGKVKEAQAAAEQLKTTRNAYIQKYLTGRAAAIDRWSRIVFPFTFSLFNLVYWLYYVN
# condition.summary: read-out: IC50 Zn2+ inhibition; α1β3CryoEM; absence of tricine; mean pIC50 converted
observed.property: IC50 (nM)

* [Zn+2] [Zn^2+] | 220

* * *

# experimental.system: human GABAA α1β3 (WT) (Homo sapiens, UniProt P14867+P28472)
# Sequence (P14867 28-456): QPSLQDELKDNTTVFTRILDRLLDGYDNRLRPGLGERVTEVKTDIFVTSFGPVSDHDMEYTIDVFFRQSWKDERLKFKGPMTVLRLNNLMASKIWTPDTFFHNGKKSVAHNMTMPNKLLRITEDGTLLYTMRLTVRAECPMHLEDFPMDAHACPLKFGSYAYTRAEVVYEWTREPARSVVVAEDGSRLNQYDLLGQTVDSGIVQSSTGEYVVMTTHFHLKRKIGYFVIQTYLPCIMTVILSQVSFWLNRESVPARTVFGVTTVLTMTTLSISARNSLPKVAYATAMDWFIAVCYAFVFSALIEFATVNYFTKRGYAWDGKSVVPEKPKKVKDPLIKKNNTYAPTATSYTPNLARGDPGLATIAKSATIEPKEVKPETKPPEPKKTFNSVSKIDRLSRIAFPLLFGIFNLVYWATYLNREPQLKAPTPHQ
# Sequence (P28472 26-473): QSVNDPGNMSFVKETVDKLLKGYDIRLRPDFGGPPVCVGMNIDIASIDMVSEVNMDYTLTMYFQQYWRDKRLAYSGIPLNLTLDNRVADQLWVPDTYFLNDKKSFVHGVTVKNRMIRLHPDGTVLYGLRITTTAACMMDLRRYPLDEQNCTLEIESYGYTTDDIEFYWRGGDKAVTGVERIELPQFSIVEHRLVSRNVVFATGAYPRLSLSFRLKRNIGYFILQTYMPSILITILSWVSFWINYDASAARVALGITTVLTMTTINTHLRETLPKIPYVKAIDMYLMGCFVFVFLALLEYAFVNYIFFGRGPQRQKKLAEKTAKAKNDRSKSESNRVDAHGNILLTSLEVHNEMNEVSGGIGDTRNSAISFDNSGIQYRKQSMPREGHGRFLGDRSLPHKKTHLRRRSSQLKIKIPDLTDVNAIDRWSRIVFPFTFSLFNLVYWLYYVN
# test: Whole-cell patch clamp, Zn2+ inhibition of GABA currents, HEK 293 cells
# condition.summary: α1β3WT; 10 mM tricine; mean pIC50 converted; read-out: IC50 free Zn2+ inhibition
observed.property: IC50

* [Zn+2] | 149 nM
